Origin of the recorded values: paper PMC6136660

assay_remarks: Phase 1 single ascending dose (SAD) pharmacokinetics, fasted
Format: in vivo, human
experimental_setup: male, human, plasma; single oral 0.1 mg/kg, fasted; geometric mean (%CV)
measured_attribute: AUC(0-inf)

Lookup: Recorded AUC(0-inf) of C[C@@H]1C[C@H]2[C@@H]3CCC4=CC(=O)C=C[C@]4(C)C3=CC[C@]2(C)[C@@]1(O)C(=O)CO , please.
Found: 49.5 ng·h/mL

###

Test system: white blood cells and subsets (lymphocytes, neutrophils, eosinophils)
assay_remarks: Differential white blood cell counts (immune suppression), MAD
Format: in vivo, human
experimental_setup: MAD 3.0 mg/kg; Screening, baseline; mean
measured_attribute: Eosinophils

Lookup: Recorded Eosinophils of C[C@@H]1C[C@H]2[C@@H]3CCC4=CC(=O)C=C[C@]4(C)C3=CC[C@]2(C)[C@@]1(O)C(=O)CO , please.
Found: 0.18 10^9/L

###

Tested on: white blood cells and subsets (lymphocytes, neutrophils, eosinophils)
assay_remarks: Differential white blood cell counts (immune suppression), MAD
Type: in vivo, human
experimental_setup: MAD 1.0 mg/kg; Day 1 predose, baseline; mean
measured_attribute: Eosinophils

Lookup: For the record C[C@@H]1C[C@H]2[C@@H]3CCC4=CC(=O)C=C[C@]4(C)C3=CC[C@]2(C)[C@@]1(O)C(=O)CO , what value of Eosinophils is listed for white blood cells and subsets (lymphocytes, neutrophils, eosinophils)?
Found: 0.17 10^9/L

###

Test system: white blood cells and subsets (lymphocytes, neutrophils, eosinophils)
assay_remarks: Differential white blood cell counts (immune suppression), MAD
Type: in vivo, human
experimental_setup: MAD 1.0 mg/kg; Day 2 predose; mean
measured_attribute: Eosinophils

Lookup: Recorded Eosinophils of C[C@@H]1C[C@H]2[C@@H]3CCC4=CC(=O)C=C[C@]4(C)C3=CC[C@]2(C)[C@@]1(O)C(=O)CO , please.
Found: 0.17 10^9/L

###

Tested on: white blood cells and subsets (lymphocytes, neutrophils, eosinophils)
assay_remarks: Differential white blood cell counts (immune suppression), MAD
Type: in vivo, human
experimental_setup: MAD 1.0 mg/kg; Day -1, baseline; mean
measured_attribute: Eosinophils

Lookup: Recorded Eosinophils of C[C@@H]1C[C@H]2[C@@H]3CCC4=CC(=O)C=C[C@]4(C)C3=CC[C@]2(C)[C@@]1(O)C(=O)CO , please.
Found: 0.18 10^9/L

###

assay_remarks: Phase 1 single ascending dose (SAD) pharmacokinetics, fasted
Format: in vivo, human
experimental_setup: male, human, plasma; single oral 3 mg/kg, fasted; geometric mean (%CV)
measured_attribute: AUC(0-inf) (ng·h/mL)
Hi! Could you send only the number? It should be in ng·h/mL, unit omitted.

Lookup: Recorded AUC(0-inf) of C[C@@H]1C[C@H]2[C@@H]3CCC4=CC(=O)C=C[C@]4(C)C3=CC[C@]2(C)[C@@]1(O)C(=O)CO , please.
Found: 1600

###

Test system: white blood cells and subsets (lymphocytes, neutrophils, eosinophils)
assay_remarks: Differential white blood cell counts (immune suppression), MAD
Assay type: in vivo, human
experimental_setup: MAD 3.0 mg/kg; Day 21 follow-up; mean
measured_attribute: Eosinophils

Lookup: Recorded Eosinophils of C[C@@H]1C[C@H]2[C@@H]3CCC4=CC(=O)C=C[C@]4(C)C3=CC[C@]2(C)[C@@]1(O)C(=O)CO [vamorolone] , please.
Found: 0.18 10^9/L

###

System: white blood cells and subsets (lymphocytes, neutrophils, eosinophils)
assay_remarks: Differential white blood cell counts (immune suppression), MAD
Format: in vivo, human
experimental_setup: MAD 20.0 mg/kg; Day 1 predose, baseline; mean
measured_attribute: Eosinophils

Lookup: Recorded Eosinophils of C[C@@H]1C[C@H]2[C@@H]3CCC4=CC(=O)C=C[C@]4(C)C3=CC[C@]2(C)[C@@]1(O)C(=O)CO , please.
Found: 0.28 10^9/L
